These data points were gathered from patent US20160145257A1.

Reported IC50 values are given for each entry in this list.
system_under_test: hTRPC5 (Homo sapiens)
Construct: expressed in transfected cells; host or cells: HEK293 TREx cells with inducible TRPC5 expression
Sequence (Q9UL62 1-973): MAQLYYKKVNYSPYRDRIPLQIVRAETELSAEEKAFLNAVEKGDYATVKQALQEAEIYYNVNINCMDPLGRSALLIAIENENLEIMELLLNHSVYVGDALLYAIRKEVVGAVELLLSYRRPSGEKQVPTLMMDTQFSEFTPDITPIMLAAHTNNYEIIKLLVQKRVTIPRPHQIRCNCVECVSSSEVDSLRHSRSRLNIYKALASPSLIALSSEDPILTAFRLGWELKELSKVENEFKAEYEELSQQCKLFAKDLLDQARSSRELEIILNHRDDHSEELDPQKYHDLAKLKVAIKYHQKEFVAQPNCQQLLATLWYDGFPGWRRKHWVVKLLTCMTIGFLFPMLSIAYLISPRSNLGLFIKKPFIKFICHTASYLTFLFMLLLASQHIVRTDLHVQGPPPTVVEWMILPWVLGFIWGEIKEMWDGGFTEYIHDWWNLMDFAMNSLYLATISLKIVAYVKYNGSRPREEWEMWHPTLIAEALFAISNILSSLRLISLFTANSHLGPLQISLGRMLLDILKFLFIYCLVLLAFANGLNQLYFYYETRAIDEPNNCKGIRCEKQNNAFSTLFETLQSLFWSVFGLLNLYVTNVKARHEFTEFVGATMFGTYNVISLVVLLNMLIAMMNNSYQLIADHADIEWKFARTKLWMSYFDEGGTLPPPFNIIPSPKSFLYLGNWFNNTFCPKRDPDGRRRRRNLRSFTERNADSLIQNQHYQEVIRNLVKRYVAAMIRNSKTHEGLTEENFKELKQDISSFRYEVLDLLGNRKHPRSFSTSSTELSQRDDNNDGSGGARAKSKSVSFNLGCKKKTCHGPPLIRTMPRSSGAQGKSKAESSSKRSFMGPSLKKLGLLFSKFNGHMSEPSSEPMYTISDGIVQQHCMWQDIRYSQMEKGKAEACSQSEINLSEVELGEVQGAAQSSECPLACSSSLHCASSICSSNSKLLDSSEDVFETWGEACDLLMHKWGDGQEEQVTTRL
procedure_text: Whole-cell patch clamp, block of LaCl3-activated TRPC5 inward current
Assay type: cell-based
experimental_conditions: TRPC5-expressing HEK293 TREx cells, 80 μM LaCl3, inward current, IC50 estimated from 5 μM and 500 nM, read-out: hTRPC5 Patch La3+ Inwd (nM) (All Batches)

compound="Cn1c(=O)c2c(nc(Oc3cccc(OC(F)(F)F)c3)n2Cc2cccc(Br)c2)n(C)c1=O [Compound 115]" system_under_test="hTRPC5 (Homo sapiens)" assay_metric=IC50 result="< 100 nM"
compound="CCCC(O)c1cccc(Oc2nc3c(c(=O)n(C)c(=O)n3C)n2Cc2cccc(Br)c2)c1 (stereo not shown) [Compound 173]" system_under_test="hTRPC5 (Homo sapiens)" assay_metric=IC50 result="2000 to 10000 nM"
compound="Cn1c(=O)c2c(nc(SCc3ccccc3F)n2Cc2ccc(Cl)c(Cl)c2)n(C)c1=O [Compound 58]" system_under_test="hTRPC5 (Homo sapiens)" assay_metric=IC50 result="100 to 500 nM"

Attention now turns to another entry.
Name the recorded IC50 of the item CCc1coc(C(C)(C)Sc2nc3c(c(=O)n(C)c(=O)n3C)n2Cc2cccc(Br)c2)n1 [Compound 100] in your answer.
100 to 500 nM

###

system_under_test: hTRPC5 (Homo sapiens)
Construct: expressed in transfected cells; host or cells: HEK293 TREx cells with inducible TRPC5 expression
procedure_text: Whole-cell patch clamp, block of LaCl3-activated TRPC5 inward current
Assay type: cell-based
experimental_conditions: TRPC5-expressing HEK293 TREx cells, 80 μM LaCl3, inward current, IC50 estimated from 5 μM and 500 nM, read-out: hTRPC5 Patch La3+ Inwd (nM) (All Batches)
assay_metric: IC50

molecule=C=Cc1nc2c(c(=O)n(C)c(=O)n2C)n1Cc1cccc(Br)c1 result="2000 to 10000 nM"
molecule=CCCC(=O)CCOc1nc2c(c(=O)n(C)c(=O)n2C)n1Cc1cccc(Br)c1 result="2000 to 10000 nM"
molecule=Cn1c(=O)c2c(nc(CCCl)n2Cc2cccc(Br)c2)n(C)c1=O result="2000 to 10000 nM"
molecule=Cn1c(=O)c2c(nc(CCCN3CCCC3)n2Cc2cccc(Br)c2)n(C)c1=O result="2000 to 10000 nM"
molecule=CCc1coc(CSc2nc3c(c(=O)n(C)c(=O)n3C)n2Cc2cccc(OC)c2)n1 result="500 to 1000 nM"
molecule=CCCOCCc1nc2c(c(=O)n(C)c(=O)n2C)n1Cc1ccc(-c2ccccc2)cc1 result="500 to 1000 nM"
molecule=CCOCCS(=O)(=O)c1nc2c(c(=O)n(C)c(=O)n2C)n1Cc1cccc(Br)c1 result="1000 to 2000 nM"
molecule=CCc1coc(CSc2nc3c(c(=O)n(C)c(=O)n3C)n2Cc2cccc(C#N)c2)n1 result="2000 to 10000 nM"

Please indicate IC50 recorded for `Cn1c(=O)c2c(nc(Oc3cccc(OC(F)(F)F)c3)n2Cc2ccc(Cl)c(F)c2)n(C)c1=O`
< 100 nM

Quickly give me recorded IC50 for `CCCOCCc1nc2c(c(=O)n(C)c(=O)n2C)n1Cc1ccc(C)cc1`
2000 to 10000 nM

Indicate the recorded IC50 value for this compound: `CCCOCCc1nc2c(c(=O)n(C)c(=O)n2C)n1Cc1ccc(C(N)=O)cc1`
2000 to 10000 nM

###

Here the recorded IC50 is given for each entry.
system_under_test: hTRPC5 (Homo sapiens, UniProt Q9UL62)
Construct: expressed in transfected cells; host or cells: HEK293 TREx cells with inducible TRPC5 expression
procedure_text: Whole-cell patch clamp, block of LaCl3-activated TRPC5 inward current
Format: cell-based
experimental_conditions: TRPC5-expressing HEK293 TREx cells, 80 μM LaCl3, inward current, IC50 estimated from 5 μM and 500 nM, read-out: hTRPC5 Patch La3+ Inwd (nM) (All Batches)

Solved cases below.
compound="Cn1c(=O)c2c(nc(Oc3ccc(C(F)(F)F)cc3)n2Cc2ccc(Cl)cc2)n(C)c1=O [Compound 144]" assay_metric=IC50 result="500 to 1000 nM"
compound="Cn1c(=O)c2c(nc(CC(=O)NCCO)n2Cc2cccc(Br)c2)n(C)c1=O [Compound 38]" assay_metric=IC50 result="2000 to 10000 nM"
compound="Cn1c(=O)c2c(nc(SCc3cccnc3)n2Cc2cccc(Br)c2)n(C)c1=O [Compound 10]" assay_metric=IC50 result="2000 to 10000 nM"
compound="Cn1c(=O)c2c(nc(SCc3ccccn3)n2Cc2cccc(Br)c2)n(C)c1=O [Compound 12]" assay_metric=IC50 result="500 to 1000 nM"
compound="CCOCC(C)(C)Sc1nc2c(c(=O)n(C)c(=O)n2C)n1Cc1cccc(Br)c1 [Compound 56]" assay_metric=IC50 result="1000 to 2000 nM"

State its IC50: CCCC(O)C(C)(C)Sc1nc2c(c(=O)n(C)c(=O)n2C)n1Cc1cccc(Br)c1 (centres unmarked) [Compound 122]
< 100 nM

Given the compound C=C(CC(=O)OCC)c1nc2c(c(=O)n(C)c(=O)n2C)n1Cc1cccc(Br)c1 [Compound 123] , write its reported IC50.
1000 to 2000 nM

Hello, please tell me recorded IC50 for this one: Cc1ccc(Oc2nc3c(c(=O)n(C)c(=O)n3C)n2Cc2ccc(Cl)cc2)cc1C(F)(F)F [Compound 199]
2000 to 10000 nM

###

system_under_test: hTRPC5 (Homo sapiens)
Construct: expressed in transfected cells; host or cells: HEK293 TREx cells with inducible TRPC5 expression
procedure_text: Whole-cell patch clamp, block of LaCl3-activated TRPC5 inward current
Format: cell-based
experimental_conditions: TRPC5-expressing HEK293 TREx cells, 80 μM LaCl3, inward current, IC50 estimated from 5 μM and 500 nM, read-out: hTRPC5 Patch La3+ Inwd (nM) (All Batches)
assay_metric: IC50

For the compound `CCCOCCOc1nc2c(c(=O)n(C)c(=O)n2C)n1Cc1cccc(Br)c1` , give its measured IC50 value.
100 to 500 nM

Report IC50 for `CCOCCSc1nc2c(c(=O)n(C)c(=O)n2C)n1Cc1cccc(Cl)c1`
2000 to 10000 nM

###

system_under_test: hTRPC5 (Homo sapiens)
Construct: expressed in transfected cells; host or cells: HEK293 TREx cells with inducible TRPC5 expression
Sequence (Q9UL62 1-973): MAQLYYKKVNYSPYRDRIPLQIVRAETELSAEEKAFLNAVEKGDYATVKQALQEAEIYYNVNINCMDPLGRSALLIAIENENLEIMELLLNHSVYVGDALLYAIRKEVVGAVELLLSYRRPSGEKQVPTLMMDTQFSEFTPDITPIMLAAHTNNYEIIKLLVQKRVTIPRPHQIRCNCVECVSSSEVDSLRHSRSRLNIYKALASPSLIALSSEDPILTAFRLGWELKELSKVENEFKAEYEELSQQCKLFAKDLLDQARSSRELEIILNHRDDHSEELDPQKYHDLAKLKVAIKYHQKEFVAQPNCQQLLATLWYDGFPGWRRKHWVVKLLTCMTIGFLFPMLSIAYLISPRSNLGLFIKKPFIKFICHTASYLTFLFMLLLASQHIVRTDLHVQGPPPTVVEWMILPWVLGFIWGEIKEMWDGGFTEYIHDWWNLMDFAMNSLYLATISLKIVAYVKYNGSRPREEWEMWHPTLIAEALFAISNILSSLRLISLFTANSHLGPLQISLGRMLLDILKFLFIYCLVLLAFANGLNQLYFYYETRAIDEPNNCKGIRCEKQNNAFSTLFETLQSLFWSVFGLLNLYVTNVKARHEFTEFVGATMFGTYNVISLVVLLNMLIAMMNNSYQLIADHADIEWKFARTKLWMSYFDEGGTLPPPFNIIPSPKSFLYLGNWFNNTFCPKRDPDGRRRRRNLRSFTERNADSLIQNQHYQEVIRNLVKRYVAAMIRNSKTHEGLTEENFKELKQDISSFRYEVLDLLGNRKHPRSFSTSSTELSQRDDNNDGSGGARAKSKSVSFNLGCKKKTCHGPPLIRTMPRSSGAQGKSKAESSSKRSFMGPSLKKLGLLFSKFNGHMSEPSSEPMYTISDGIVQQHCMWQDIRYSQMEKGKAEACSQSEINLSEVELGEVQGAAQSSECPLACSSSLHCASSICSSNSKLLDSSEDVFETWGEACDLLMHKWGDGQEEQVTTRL
procedure_text: Whole-cell patch clamp, block of LaCl3-activated TRPC5 inward current
Format: cell-based
experimental_conditions: TRPC5-expressing HEK293 TREx cells, 80 μM LaCl3, inward current, IC50 estimated from 5 μM and 500 nM, read-out: hTRPC5 Patch La3+ Inwd (nM) (All Batches)
assay_metric: IC50

molecule="Cn1c(=O)c2c(nc(/C=C/c3ccccc3)n2Cc2cccc(Br)c2)n(C)c1=O [Compound 32]" result="2000 to 10000 nM"
molecule="Cn1c(=O)c2c(nc(Oc3cncc(C(F)(F)F)c3)n2Cc2ccc(Cl)cc2)n(C)c1=O [Compound 184]" result="1000 to 2000 nM"
molecule="CCCOCCc1nc2c(c(=O)n(C)c(=O)n2C)n1Cc1ccc(CO)cc1 [Compound 151]" result="2000 to 10000 nM"

Give IC50 for COc1cc(Cn2c(Oc3cccc(OC(F)(F)F)c3)nc3c2c(=O)n(C)c(=O)n3C)ccc1Cl [Compound 205]
100 to 500 nM
